src = PubChem BioAssay

Recorded z-score values for a group of compounds are listed next.
# protocol: budding yeast growth changes without added modifier – OD600, strain BY4716, 24 h, basal condition, primary screen (AID 1173)
# measurement.parameters: S. cerevisiae BY4716 growth, OD600, 24 h; higher = more signal, called active from +8 up or from −8 down

compound	z-score
C=CCC(OC(C)=O)[C@@H]1[C@@H](N(Cc2ccc(-c3ccccc3)cc2)C(=O)c2ccc(-c3ccccc3)cc2)c2cc(OCCCO)ccc2N1C(=O)c1ccc2ccccc2c1 (some centres undefined)	0.416
CCCC[C@@H](O)C1=C(COC)C[C@H]2C(=O)N(Cc3ccccc3)C(=O)[C@H]2[C@H]1CO	-1.22
NC(=O)NCC#Cc1ccc2c(c1)[C@]1(C(=O)N2)[C@H](c2ccccc2OCCO)N2[C@H](c3ccccc3)[C@H](c3ccccc3)OC(=O)[C@H]2[C@@H]1C(=O)NC[C@H](O)c1ccccc1	-0.589
O=C1O[C@@H](c2ccccc2)[C@@H](c2ccccc2)N2[C@@H](c3ccc(OCCO)cc3)[C@]3(C(=O)Nc4ccc(C#CC5=CCCCC5)cc43)[C@@H](C(=O)NC[C@H](O)c3ccccc3)[C@H]12	1.49

----------
# protocol: Pseudomonas biofilm growth suppression – PAO1 strain, BacTiter-Glo luminescence, LB-PBS, primary screen (AID 1144)
# measurement.parameters: P. aeruginosa PAO1 biofilm, 12 h, higher = more signal
Recorded z-score values for a group of compounds are listed next.

compound	z-score
CC(C)N1CC=CC23O[C@@H]4C=CCCOC(=O)C4[C@H]2C(=O)N(CCCO)[C@@H]3C1=O (stereo not given in full)	-0.614
CC1CC/C=C\[C@H]2OC34C=CCN(Cc5ccccc5)C(=O)[C@H]3N(C(CO)C(C)C)C(=O)[C@@H]4C2C(=O)O1 (stereo not given in full)	1.09
C=CCC(OC(C)=O)[C@@H]1[C@@H](N(Cc2cc3ccccc3o2)C(=O)Cc2ccc(F)cc2)c2cc(OCCCO)ccc2N1C(=O)Cc1ccc2ccccc2c1 (stereo not given in full)	-0.467
COc1cc(C(O)C2C=CC3C(=O)N(C)C(=O)C3N2Nc2ccccc2)cc(OC)c1OC (stereo not given)	-0.426
COCCCNC(=O)[C@@]1(CCC(=O)OC(C)(C)C)N=C(c2ccc(OCCCO)cc2)O[C@H]1c1ccccc1N=[N+]=[N-]	0.199
C=CCNC(=O)[C@@H]1[C@H]2C(=O)O[C@H](c3ccccc3)[C@H](c3ccccc3)N2[C@H](c2ccc(O)cc2)[C@@]12C(=O)N(C(=O)OCCOC)c1ccc(C#CC3=CCCCC3)cc12	0.411
CC(C)NC(=O)[C@@]1(C)c2ccccc2C(=O)N(Cc2ccc(OC(F)(F)F)cc2)[C@H]1c1ccc(CO)cc1	-0.539
COc1ccc(CCNC(=O)[C@@]2(c3ccc([N+](=O)[O-])cc3)CC(=O)N(C3CCCCC3)[C@@H]2c2ccc(CO)cc2)cc1	0.733
[N-]=[N+]=NCc1ccccc1[C@H]1OC(c2ccc(OCCCO)cc2)=N[C@@]1(Cc1ccccc1N=[N+]=[N-])C(=O)NCC(O)CO (stereo not given in full)	0.401
Cn1cccc1C(O)C1C=CC2C(=O)N(c3ccccc3)C(=O)C2N1Nc1ccccc1 (stereo not given)	-0.758
C=CC[C@H](OC(=O)Nc1ccc(SC)cc1)c1ccc(O)c2ccccc12	-0.921
CCOC(=O)C[C@H]1[C@H](OC(=O)c2cc3ccccc3oc2=O)[C@@H](NC(=O)c2ccc3ccccc3n2)c2cc(OCCCO)ccc2N1C(=O)Cc1ccc(OC)cc1	-1.05
CC1CC/C=C\[C@H]2OC34C=CCN(c5ccc(Cl)cc5)C(=O)[C@H]3N(C(C)CO)C(=O)[C@]4(C)C2C(=O)O1 (stereo not given in full)	0.2
COCCOC(=O)N1C(=O)[C@@]2(c3cc(C#CC4(O)CCCCCC4)ccc31)[C@H](C(=O)N1CCc3cc(OC)c(OC)cc3C1)[C@H]1C(=O)O[C@H](c3ccccc3)[C@H](c3ccccc3)N1[C@@H]2c1ccc(OCCO)cc1	-0.555
Cc1cc(C)c(C(O)C2C=CC3C(=O)N(c4ccccc4)C(=O)C3N2Nc2ccccc2F)c(C)c1 (stereo not given)	-0.386
C=CCOC(=O)[C@@H]1[C@H]2C(=O)O[C@H](c3ccccc3)[C@H](c3ccccc3)N2[C@H](c2ccc(OCCOC(=O)[C@@H]3C[C@@H]4C(=O)N[C@@H](CCCC[N+](C)(C)C)C(=O)N4[C@@H]3c3ccc(O)cc3)cc2)[C@@]12C(=O)Nc1ccc(I)cc12	-1.37
COC(=O)[C@@]1(Cc2ccccc2)[C@H]2c3cc(C(=O)N4CCCC4)n(CCc4ccccn4)c3C[C@H]2CN1C(=O)c1ccccc1	1.09
[N-]=[N+]=Nc1ccccc1C[C@@]1(C(N)=O)N=C(c2ccc(OCCCO)cc2)O[C@@H]1c1ccccc1N=[N+]=[N-]	-0.0225
CCCCCCCCCCC(O)C1C=CC2C(=O)N(c3ccccc3)C(=O)C2N1Nc1ccc(C#N)cc1 (stereo not given)	-0.209
CN(C)C(=O)[C@]1(CCC(=O)OC(C)(C)C)N=C(c2ccc(OCCCO)cc2)O[C@@H]1c1ccccc1CN=[N+]=[N-]	-1.42
